# System: Leishmania amazonensis
# TEST NAME: Leishmanicidal activity against extracellular promastigote stage of Leishmania amazonensis MHOM/Br/79/Maria assessed as reduction of parasite load after 48 hrs by resazurin dye-based fluorometric analysis
# Assay type: functional, organism-based
# EXPERIMENTAL SETUP: Leishmania amazonensis, MHOM/Br/79/Maria, 48 h; read-out: IC50
Listed here: items and their measured IC50.
A complete answer gives the number followed by the unit.

O=S(=O)(Nc1nccc2ccccc12)c1ccc(Cl)cc1 :: 82.8 µM
O=S(=O)(Nc1ccc2[nH]ncc2c1)c1cccc2ccccc12 :: 37.7 µM
O=S(=O)(Nc1ccc2nccnc2c1)c1ccc(Cl)cc1 :: 46.2 µM
CC1CCCN(S(=O)(=O)c2ccccc2)C1 (stereo unspecified) :: 40.9 µM
CCCCCCCCCCCCCCCCOP(=O)([O-])OCC[N+](C)(C)C [MILTEFOSINE] :: 34.1 µM
O=S(=O)(Nc1cccc2cnccc12)c1ccc(Cl)cc1 :: 8.4 µM
O=[N+]([O-])c1ccc(S(=O)(=O)Nc2ncccn2)cc1 :: 68.6 µM
O=[N+]([O-])c1ccc(S(=O)(=O)Nc2ccc3nccnc3c2)cc1 :: 198 µM
O=[N+]([O-])c1ccc(S(=O)(=O)Nc2ccc3[nH]ncc3c2)cc1 :: 66.7 µM
Cc1cc2cc(NS(=O)(=O)c3ccc([N+](=O)[O-])cc3)ccc2[nH]1 :: 15.8 µM

Please examine the following record next.
## Input Suppose we examine the compound `O=S(=O)(Nc1nccc2ccccc12)c1ccccc1` ; what IC50 value has been reported?
## Output 93.5 µM
